- Test system: RIPK1
- SETUP CONDITIONS: concentration: 1 μM, replicates: in singlicate; n = 1;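 further: KINOMEscan kinase panel screen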
MEASURED METRIC: %Inh (%)
API: value field is a number in %; no unit string.

COc1ccc(CSc2nnc(-c3ccc4c(c3)CCO4)o2)cc1 = 0
CSc1ccc(-c2nc3n(c2-c2ccncc2)CCC3)cc1 [SKF-105561] = 0
COc1ccc(CSc2nnc(-c3ccc4ncsc4c3)o2)cc1C(F)(F)F = 0
COc1cccc(CNC(=O)NC2CCN(c3ccnc(Nc4ccc(F)cc4)n3)C2)c1 (stereo not drawn) [GSK1379723] = 0
Cc1cnc(N)c(/C=C/c2cncc(C(=O)NCCc3ccc(Cl)cc3Cl)c2)c1.Cl [GSK190937] = 5

Q: Quote %Inh reported for O=C1NC(=O)C(c2ccc(Cl)cc2)=C1Nc1ccc(O)cc1 [SB-340867] please.
A: 0

Q: Read off the recorded %Inh for COc1ccc(Nc2nccc(N3CCC(NC(=O)c4cc5ccccc5s4)C3)n2)cc1 (stereo not drawn) [GSK1379738]
A: 28

Q: Give a short answer stating reported %Inh for FC(F)(F)c1ccccc1-c1cc(-c2c[nH]nc2-c2ccccn2)ccn1 [GW679396] .
A: 12

Q: Give the reported %Inh for this compound. Cc1c(Cn2c3ccccc3n3c(=O)cc(N4CCOCC4)nc23)cccc1C(F)(F)F [GSK2306394]
A: 4

Q: Supply reported %Inh belonging to this compound: CCCCc1nn2ncccc2c1-c1ccnc(NC2CC2)n1 [GW684374]
A: 0

----------
- System: ASK2
- Construct: gene MAP3K6
- SETUP CONDITIONS: concentration: 1 μM, replicates: in singlicate; n = 1
MEASURED METRIC: %Inh
Give the figure together with its unit, number first.

The following compounds have reported results that may help.
CNc1nc(-c2ccc3c(N)n[nH]c3c2)cc(N2C[C@@H](C(=O)NC3CCCCC3)OC[C@H]2C)n1 [GSK2375584] = 0%
O=C1NC(=O)C(c2ccc(Cl)cc2)=C1Nc1cccc(Cl)c1 [SB-317651] = 0%
CC(=O)c1cccc(NC(=O)NC2CCN(c3ccnc(Nc4ccc(F)cc4)n3)C2)c1 (centres unmarked) [GSK1379710] = 0%
COc1ccc(Nc2nccc(N3CCC(NC(=O)c4cc5ccccc5s4)C3)n2)cc1 (centres unmarked) [GSK1379738] = 11%
Cc1ccc(NC(=O)c2ccc(Cl)cc2)cc1-c1ccc(C(=O)Nc2ccncc2)cc1 [GSK1398467] = 21%
COc1cccc(C2=C(Nc3cc(Cl)c(O)c(Cl)c3)C(=O)NC2=O)c1 [SB-390767] = 7%

Q: Find the measured %Inh of Nc1nccc(-c2c(-c3ccc(F)cc3)ncn2C2CCN(Cc3ccccc3)CC2)n1 [SB-219980] and report it.
A: 0%

Q: Provide one value: measured %Inh of CSc1ccc(-c2nc3n(c2-c2ccncc2)CCC3)cc1 [SKF-105561]
A: 17%

----------
- System: BIKE
- Construct: gene BMP2K
- SETUP CONDITIONS: concentration: 1 μM, replicates: in singlicate; n = 1
MEASURED METRIC: %Inh

Observe how each entry below is paired with its result.
COc1ccc(-c2coc3ccc(-c4nnc(C)o4)cc23)cc1 = 0%
COc1ccc2cc(-c3nc(-c4ccccc4C(C)C)[nH]c3-c3ccncc3)ccc2c1 = 0%
Fc1ccc(-c2nn3cccc(F)c3c2-c2ccncc2)cc1 = 34%
COc1ccc(CSc2nnc(-c3ccc4nccn4c3)o2)cc1C(F)(F)F = 18%
CC(=O)c1c(C)c2cnc(Nc3ccn(C)n3)nc2n(C2CCCC2)c1=O = 22%

Q: Would you please give the reported %Inh of "Cc1ccc(NC(=O)Nc2ccc(Cl)cc2)cc1-c1ccc(C(=O)Nc2ccncc2)cc1" with BIKE?
A: 18%

Q: Provide BIKE %Inh reading for "O=C(Nc1n[nH]c2cc(-c3ccsc3)ccc12)C1CC1" .
A: 54%

Q: # assay system BIKE: give %Inh of COC(=O)c1cccc(NC(=O)NC2CCN(c3ccnc(Nc4ccc(OC)cc4)n3)C2)c1 (stereo not drawn)
A: 6%

Q: Give reported %Inh for "NS(=O)(=O)c1cccc(N/C=C2\C(=O)Nc3ccc(S(=O)(=O)Cc4c(Cl)cccc4Cl)cc32)c1" (BIKE)
A: 0%

Q: For BIKE, give %Inh of the listed compound: "Fc1ccc(-c2nc3n(c2-c2ccncc2)CCS3)cc1"
A: 32%

Q: Give %Inh for "Cn1cncc1-c1cc2c(Nc3ccc(OCc4ccccc4)cc3)ncnc2cn1" tested on BIKE.
A: 4%

Q: Please look at "Cc1ccc(NC(=O)Nc2ccccc2)cc1-c1ccc(C(=O)Nc2ccncc2)cc1" and tell me its recorded %Inh on BIKE.
A: 20%

Q: Look up and report measured %Inh (BIKE) for the following compound: "COc1ccc(CSc2nnc(-c3ccc4ncsc4c3)o2)cc1C(F)(F)F"
A: 0%

Q: Using BIKE as the test system, report measured %Inh of "CC(C)c1cc(-c2ccc3c(N)n[nH]c3c2)nc(N)n1" .
A: 72%

Q: GET %Inh where system = BIKE and item = "CNc1nc(-c2ccc3c(N)n[nH]c3c2)cc(N2C[C@@H](C(=O)Nc3ccccc3)CC[C@H]2C)n1"
A: 36%

Q: Return reported %Inh for target or system BIKE, item "Cc1cccc2c(-c3ccncn3)c(-c3ccc(F)cc3)nn12" .
A: 10%

Q: Jot down %Inh (BIKE) of "Nc1nccc(-c2c(-c3ccc(F)cc3)ncn2C2CCN(Cc3ccccc3)CC2)n1" .
A: 0%

Q: # lookup: BIKE %Inh, key = "Nc1ncnc2occ(-c3ccc4c(c3)CCN4C(=O)Cc3cc(F)ccc3F)c12"
A: 17%
